Each recorded value in this set is attributed to ChEMBL document CHEMBL5150015.

Target: Prolyl endopeptidase FAP (Homo sapiens)
Sequence (Q12884 whole entry): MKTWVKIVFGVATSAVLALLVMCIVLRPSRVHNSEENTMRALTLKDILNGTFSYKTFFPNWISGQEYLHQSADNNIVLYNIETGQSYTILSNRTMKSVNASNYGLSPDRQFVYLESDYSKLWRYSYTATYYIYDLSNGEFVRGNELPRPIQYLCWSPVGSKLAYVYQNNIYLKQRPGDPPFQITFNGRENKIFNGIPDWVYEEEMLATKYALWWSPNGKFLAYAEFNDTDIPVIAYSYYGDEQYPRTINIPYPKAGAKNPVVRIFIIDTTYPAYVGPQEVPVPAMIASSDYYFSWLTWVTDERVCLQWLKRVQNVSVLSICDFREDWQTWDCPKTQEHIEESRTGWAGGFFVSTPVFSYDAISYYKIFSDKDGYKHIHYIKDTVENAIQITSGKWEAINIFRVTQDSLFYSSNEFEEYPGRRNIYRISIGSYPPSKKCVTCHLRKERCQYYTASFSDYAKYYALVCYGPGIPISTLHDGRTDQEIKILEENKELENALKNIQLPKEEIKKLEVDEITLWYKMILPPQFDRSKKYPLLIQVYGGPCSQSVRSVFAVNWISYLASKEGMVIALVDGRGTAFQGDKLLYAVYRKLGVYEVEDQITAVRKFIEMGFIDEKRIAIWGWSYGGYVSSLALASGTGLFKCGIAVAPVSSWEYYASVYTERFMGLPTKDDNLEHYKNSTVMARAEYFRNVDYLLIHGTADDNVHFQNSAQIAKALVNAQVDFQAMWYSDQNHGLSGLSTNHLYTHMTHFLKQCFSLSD
pKi: −log10 of the molar value.
measure: pKi

Please list pKi recorded for the compound `N#C[C@@H]1CC[C@@H]2OC[C@H](NC(=O)OCc3ccccc3)C(=O)N12`
< 4.60

###

Experiment: Inhibition of POP (unknown origin)
Parameters: species or system Homo sapiens
Where a SMILES comes first, the peptide text is derived from it. The star is where a group is joined. Cbz = O=C(OCc1ccccc1)*
Reported Ki by item:
Lab book: enter the figure in nM, no units written.

// worked examples, Ki included
>>> numeric_readout("CC(C)(C)OC(=O)N[C@H]1CO[C@H]2CC[C@@H](B3O[C@@H]4C[C@@H]5C[C@@H](C5(C)C)[C@]4(C)O3)N2C1=O")
6.8
>>> numeric_readout("C[C@H]1O[C@H]2CC[C@@H](B(O)O)N2C(=O)[C@H]1N")
840

Please list Ki recorded for the molecule `C[C@H](NC(=O)OC(C)(C)C)C(=O)N1CCC[C@H]1B1O[C@@H]2C[C@@H]3C[C@@H](C3(C)C)[C@]2(C)O1`
1.3

Please list Ki recorded for the molecule O=C[C@@H]1CCCN1C(=O)[C@@H]1CCCN1C(=O)OCc1ccccc1 [Z-PRO-PROLINAL] (Cbz-Pro-Pro-aldehyde)
0.29

Please list Ki recorded for the molecule `C[C@H]1O[C@H]2CC[C@@H](B3O[C@@H]4C[C@@H]5C[C@@H](C5(C)C)[C@]4(C)O3)N2C(=O)[C@H]1NC(=O)OCc1ccccc1`
2.1

Please list Ki recorded for the molecule `N#C[C@@H]1CC[C@@H]2OC[C@H](NC(=O)OCc3ccccc3)C(=O)N12`
1.6

Please list Ki recorded for the molecule `N[C@@H]1CO[C@@H]2CC[C@@H](B(O)O)N2C1=O`
6200
